ASSAY TEXT: Pseudomonas biofilm growth suppression – PAO1 strain, BacTiter-Glo luminescence, LB-PBS, primary screen (AID 1144)
TEST SETTINGS: P. aeruginosa PAO1 biofilm, 12 h, higher = more signal
Give condition met when the value for z-score is at least 0.09. Give condition not met when it is less.

(Q) Evaluate COCCOC(=O)N1C(=O)[C@@]2(c3cc(C#Cc4ccc(OC)cc4)ccc31)[C@H](c1ccc(O)cc1)N1[C@H](c3ccccc3)[C@H](c3ccccc3)OC(=O)[C@H]1[C@@H]2C(=O)Nc1nc2ccccc2s1 : z-score at minimum 0.09?
(A) condition not met

(Q) Reported z-score at or above 0.09? COC(=O)[C@@]1(Cc2ccccc2)[C@H]2c3cc(C(=O)N(C)C)n(Cc4ccc(OC)c(OC)c4)c3C[C@H]2CN1C(=O)c1ccccc1
(A) condition met

(Q) z-score >= 0.09 for Cc1ccc(S[C@]2(C(=O)O)CC(=O)N(Cc3ccccc3C(F)(F)F)[C@@H]2c2ccc(CO)cc2I)cc1 ?
(A) condition met

(Q) Hi team, for NC(=O)[C@@H]1[C@H]2C(=O)O[C@H](c3ccccc3)[C@H](c3ccccc3)N2[C@H](c2ccc(OCCO)cc2)[C@@]12C(=O)Nc1ccc(C#CC3=CCCCC3)cc12 , is the recorded z-score at or above 0.09?
(A) condition not met

(Q) In plain terms: is recorded z-score at least 0.09 for C=CC[C@]1(C(N)=O)N=C(c2ccc(OCCCO)cc2)O[C@H]1c1ccccc1 ?
(A) condition not met

Measured values drawn from PubChem BioAssay for this set.
